target_system: T1, murine BACE1 ECD
T1 construct: analyte of the Octet assay (200 nM) and enzyme of the first short substrate assay
T1 sequence (single chain, as listed by the source limits assumed): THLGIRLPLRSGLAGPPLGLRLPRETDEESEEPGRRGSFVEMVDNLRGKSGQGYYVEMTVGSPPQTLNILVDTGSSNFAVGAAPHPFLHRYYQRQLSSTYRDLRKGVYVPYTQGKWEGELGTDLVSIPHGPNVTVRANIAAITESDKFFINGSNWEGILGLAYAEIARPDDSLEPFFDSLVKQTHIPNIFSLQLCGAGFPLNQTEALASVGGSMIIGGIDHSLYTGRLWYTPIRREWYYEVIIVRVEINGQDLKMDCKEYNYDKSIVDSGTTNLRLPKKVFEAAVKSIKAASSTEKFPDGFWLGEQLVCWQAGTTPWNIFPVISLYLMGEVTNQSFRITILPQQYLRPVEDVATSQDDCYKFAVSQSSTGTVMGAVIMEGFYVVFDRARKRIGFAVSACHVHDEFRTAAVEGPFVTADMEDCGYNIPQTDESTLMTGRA
assay_procedure: Octet, pH 5.0;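 also: antibodies captured on anti-human capture sensor tips, dissociation monitored in PBS with BSA buffer, kinetics fitted with a one-to-one binding model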
observable: Kd

# example entries with known answers
INSERT INTO results (binder, observed) VALUES
  ('5988 (antibody, V domains shown, anti-BACE1 IgG) VH: QVQLVQSGAEVKKPGSSVKVSCKASGGTLSGYAISWVRQAPGQGLEWMGNIIPGFGTANYAQKSQGRVTITADESTSTAYMELSSLRSEDTAVYYCARSGGTRYGMLDVWGQGTMVTVSS VL: GIVMTQSPATLSVSPGERATLSCRASQSVGSNLAWYQQKPGQAPRLLIYGASTRATGIPARFSGSGSGTEFTLTISSLQSEDFAVYYCQQLYTWPPRTFGGGTKVEIK', '< 290 pM'),
  ('6272 (antibody, V domains shown, anti-BACE1 IgG) VH: QVQLVQSGAEVKKPGSSVKVSCKASGGTFSGYGISWVRQAPGQGLEWMGNIIPGFGTANYAQKFQGRVTITADESTSTAYMELSSLRSEDTAVYYCARSGGTKYGMLDVWGQGTMVTVSS VL: EIVMTQSPATLSVSPGERATLSCRASQSVSSNLAWYQQKPGQAPRLLIYGASTRATGIPARFSGSGSGTEFTLTISSLQSEDFAVYYCQQLFLWPPRTFGGGTKVEIK', '< 400 pM'),
  ('5990 (antibody, V domains shown, anti-BACE1 IgG) VH: QLQLQESGPGLVKPSETLSLTCTVSGGSISWSSYYWSWIRQPPGKGLEWIGSIYRSGRTYYNPSLKSRVTISVDTSKNQFSLKLSSVTAADTAVYYCARVGHGINYFDLWGRGTLVTVSS VL: EIVLTQSPATLSLSPGERATLSCRASRSVNSYLAWYQQKPGQAPRLLIYDASKRATGIPARFSGSGSGTDFTLTISSLEPEDFAVYYCQQVYTWPPRTFGGGTKVEIK', '< 230 pM'),
  ('6285 (antibody, V domains shown, anti-BACE1 IgG) VH: QLQLQESGPGLVKPSETLSLTCTVSGGSTSSSSYYWGWIRQPPGKGLEWIGSIYRSGSTYYNPSLKSRVTISVDTSKNQFSLKLSSVTAADTAVYYCARVGHGISYFDLWGRGTLVTVSS VL: EIVLTQSPATLSLSPGERATLSCRASQSVSSYLAWYQQKPGQAPRLLIYDASSRATGIPARFSGSGSGTDFTLTISSLEPEDFAVYYCQQSLTWPPRTFGGGTKVEIK', '410 pM');

Please turn your attention to the following entry.
Query: What value of measured Kd is listed for 6299 (antibody, V domains shown, anti-BACE1 IgG) VH: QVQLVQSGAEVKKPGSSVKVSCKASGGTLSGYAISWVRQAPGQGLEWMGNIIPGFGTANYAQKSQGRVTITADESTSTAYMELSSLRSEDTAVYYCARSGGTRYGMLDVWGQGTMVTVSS VL: EIVMTQSPATLSVSPGERATLSCRASQSVGSNLAWYQQKPGQAPRLLIYGASTRATGIPARFSGSGSGTEFTLTISSLQSEDFAVYYCQQSYLWPPRTFGGGTKVEIK ?
Reply: < 460 pM
